B1: Osa-1-4 twister ribozyme (parent)
chain: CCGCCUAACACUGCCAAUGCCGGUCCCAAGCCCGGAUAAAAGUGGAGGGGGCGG

variants of: B1; experiment: self-cleavage, relative activity (ratio to wild type); higher = more cleavage; co-transcriptional
Collected self-cleavage values appear next to each entry.
OBSERVABLE: self-cleavage

[[record]]
variant_description = "A39G C15A"
measured = 0.41

[[record]]
variant_description = "C9G U43C"
measured = 0.16

[[record]]
variant_description = "C21A"
measured = 0.93

[[record]]
variant_description = "A8U G42C"
measured = 0.06

[[record]]
variant_description = "C21U C25U"
measured = 0.88

[[record]]
variant_description = "A7C G54U"
measured = 0.06

[[record]]
variant_description = "C32U U18C"
measured = 0.18

[[record]]
variant_description = "C14A G54A"
measured = 0.1

[[record]]
variant_description = "G30U G42C"
measured = 0.03

[[record]]
variant_description = "G23U G45C"
measured = 0.03

[[record]]
variant_description = "A40G C32A"
measured = 0.06

